measuredTarget: Arginase-2, mitochondrial (Homo sapiens) (UniProt P78540)
Sequence (P78540 whole entry): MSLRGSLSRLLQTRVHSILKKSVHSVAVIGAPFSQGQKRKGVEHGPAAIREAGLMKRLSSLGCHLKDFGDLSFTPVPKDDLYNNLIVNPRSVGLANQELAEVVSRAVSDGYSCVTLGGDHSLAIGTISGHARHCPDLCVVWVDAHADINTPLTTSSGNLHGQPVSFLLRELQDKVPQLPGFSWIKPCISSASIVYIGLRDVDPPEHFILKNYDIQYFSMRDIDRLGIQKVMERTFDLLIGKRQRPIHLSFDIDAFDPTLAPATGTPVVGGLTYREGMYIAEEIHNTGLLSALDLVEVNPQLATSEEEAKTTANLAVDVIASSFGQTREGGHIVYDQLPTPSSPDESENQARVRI
experimentalDetails: in vitro enzyme assay to detect the production of urea directly proportional to the activity of Arginase II
Type: functional
Set-up: scale not given: in the data most compounds retested in dose-response had high values
conditionSet: 33.3 µM
Exercise: state measured Percent Effect for each of the molecules provided.
Answers are plain numbers, in %.

Known results for molecules:
Cc1ccn(CCC(=O)N2CCOC(c3nc(-c4cccs4)no3)C2)n1 (stereo unspecified) :: 4.42
Cc1cc(C)c(CNC(=O)N2CCN(c3cnccn3)CC2)c(=O)[nH]1 :: -1.53
CC(C)(C)c1cn2nc(N3CCOC(Cn4cncn4)C3)sc2n1 (stereo unspecified) :: -2.46
O=C(NCCn1ccnc1)NCC(c1ccco1)N1CCCCC1 (stereo unspecified) :: 1.9
CN1CCN(c2ncccc2CNc2ncccc2C#N)CC1 :: 3.72
CCO[C@H]1CO[C@@]2(CCCN(S(=O)(=O)c3ccccc3)C2)C1 :: 11.3
CC(C)NC(=O)N1C[C@H]2C[C@H](C(=O)NCc3ccccc3)[C@@H](C1)O2 :: -5.67
CCN(CC(=O)NC)C(=O)Cc1nc(-c2ccco2)oc1C :: 5.73
CN1C(=O)C(C)(C)COc2cc(NS(=O)(=O)Cc3ccccc3)ccc21 :: -2.73
CCc1nnc(CNCC2CCN(CC(O)c3ccccc3)CC2)o1 (stereo unspecified) :: -7.1

So what's the measured Percent Effect for this one? CCN1CC2(CC1=O)CN(Cc1cccs1)CCN(C(=O)C(C)C)C2 (stereo unspecified)
-3.33

* * *

Consider the following molecules; for each one, report its Percent Effect.
measuredTarget: Chromo domain-containing protein 1 (Saccharomyces cerevisiae (strain ATCC 204508 / S288c) (Baker's yeast)) (UniProt P32657)
Sequence (P32657 whole entry, the tested form may be a part): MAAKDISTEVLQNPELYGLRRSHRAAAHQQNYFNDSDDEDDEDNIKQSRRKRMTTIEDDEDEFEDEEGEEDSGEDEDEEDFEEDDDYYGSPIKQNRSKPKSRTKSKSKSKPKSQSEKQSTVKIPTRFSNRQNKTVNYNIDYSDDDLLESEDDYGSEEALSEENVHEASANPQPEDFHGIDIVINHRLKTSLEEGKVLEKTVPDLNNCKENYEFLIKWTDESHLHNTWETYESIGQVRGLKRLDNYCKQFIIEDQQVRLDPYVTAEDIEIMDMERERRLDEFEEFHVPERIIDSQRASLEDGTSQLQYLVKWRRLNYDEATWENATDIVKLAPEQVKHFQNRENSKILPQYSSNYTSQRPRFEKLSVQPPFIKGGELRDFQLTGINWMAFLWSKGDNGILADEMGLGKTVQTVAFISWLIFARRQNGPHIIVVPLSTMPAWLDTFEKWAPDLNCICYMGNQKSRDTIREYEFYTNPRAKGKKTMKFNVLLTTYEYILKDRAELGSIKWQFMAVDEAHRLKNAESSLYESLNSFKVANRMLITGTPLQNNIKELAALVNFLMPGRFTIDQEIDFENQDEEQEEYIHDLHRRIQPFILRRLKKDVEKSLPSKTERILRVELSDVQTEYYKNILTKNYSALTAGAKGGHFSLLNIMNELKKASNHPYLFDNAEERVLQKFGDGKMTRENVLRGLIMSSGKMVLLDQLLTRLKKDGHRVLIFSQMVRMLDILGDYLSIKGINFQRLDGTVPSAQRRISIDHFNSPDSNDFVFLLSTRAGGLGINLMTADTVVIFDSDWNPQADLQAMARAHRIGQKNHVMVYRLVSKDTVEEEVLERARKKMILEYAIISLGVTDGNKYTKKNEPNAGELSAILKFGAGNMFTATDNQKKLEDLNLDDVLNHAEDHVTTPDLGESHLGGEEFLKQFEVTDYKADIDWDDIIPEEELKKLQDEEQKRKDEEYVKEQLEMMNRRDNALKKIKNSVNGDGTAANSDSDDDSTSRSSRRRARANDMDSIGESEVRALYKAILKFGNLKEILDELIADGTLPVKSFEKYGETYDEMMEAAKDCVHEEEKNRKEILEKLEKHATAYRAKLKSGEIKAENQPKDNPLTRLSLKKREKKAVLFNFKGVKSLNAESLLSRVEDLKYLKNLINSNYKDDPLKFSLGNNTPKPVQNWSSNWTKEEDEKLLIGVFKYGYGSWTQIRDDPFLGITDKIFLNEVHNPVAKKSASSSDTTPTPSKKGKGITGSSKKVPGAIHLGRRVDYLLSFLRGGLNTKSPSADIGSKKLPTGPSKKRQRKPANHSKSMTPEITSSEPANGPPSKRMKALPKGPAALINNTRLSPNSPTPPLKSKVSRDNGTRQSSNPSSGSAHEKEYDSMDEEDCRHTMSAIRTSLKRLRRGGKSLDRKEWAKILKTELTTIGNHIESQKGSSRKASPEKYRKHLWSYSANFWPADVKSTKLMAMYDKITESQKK
experimentalDetails: ScCHD-1 Enzyme Inhibition Assay
Type: functional
Design: scale not given: in the data most compounds retested in dose-response had high values
conditionSet: 30 µM
One number for each entry, in %.

CC(=O)N1CCCC1c1nccc(C)n1 (stereo not drawn) :: -1.52
Cc1cccc(CN2C(=O)CO[C@@H]3CN(Cc4nccn4C)C[C@H]32)c1 :: -3.16
Cc1ccc(C2C3=C(COC3=O)Nc3[nH]nc(C)c32)cc1C (stereo not drawn) :: -11.7

# return Percent Effect for each item in the list
1. CN1CCCN(c2nccc(-c3c[nH]nc3C3CCCCC3)n2)CC1
2. CC(=O)N(Cc1ncc(C)o1)C1CCN(CCCc2cnn(C)c2)C1 (stereo not drawn)
3. O=C(COc1ccccc1)N1CCC[C@]2(C[C@H](OCC3CC3)CO2)C1
4. CCCc1n[nH]c(C2CN(C(=O)CCCn3cccn3)CCO2)n1 (stereo not drawn)
5. Cc1nc(C)c(C(=O)N2CCC(Nc3cccnc3)CC2)s1
6. CC(C)C(NC(=O)Cn1ccc(=O)n(C)c1=O)c1ccc(F)cc1 (stereo not drawn)

1. -14.2
2. -12.6
3. -7.91
4. 5.04
5. -3.74
6. -8.33

* * *

measuredTarget: Proteasome subunit beta (Trypanosoma cruzi)
experimentalDetails: Trypanosoma cruzi proteasome chymotrypsin-like activity (TcProtChymo) assay.
Assay type: functional
Set-up: scale not given: in the data most compounds retested in dose-response had high values
conditionSet: 9.37 µM
Lab note: compare Percent Effect with 10%, writing TRUE if less and FALSE if equal or more.

COCCNC(=O)Nc1ccc(F)c(C(N)=O)c1 :: TRUE
CC1CN(c2ccc(CNC(=O)c3ccn(C)c(=O)c3)cn2)CCO1 (stereo not drawn) :: TRUE
CN1CC(=O)N(c2ccccc2)CC12CCN(CC1CC1)C2 (stereo not drawn) :: FALSE
CO[C@@H]1CC[C@@H](N(C)C(=O)COc2ccc(F)cc2)[C@H]1O :: FALSE

Please indicate whether the reported Percent Effect of "Cc1cc(C(N)=O)ccc1NC(=O)c1nc(N2CCCC2)ncc1Cl" is strictly below 10%.
FALSE

What do you have for CC(=O)N1CCNCC1c1cccc(C(=O)N(C)C)c1 (stereo not drawn) ?
TRUE

Cool, now "CNC(=O)[C@H]1C[C@@H]2CN(S(=O)(=O)c3ccccc3)C[C@@H]2N1C(C)=O"
TRUE

Next entry: COc1ccc(C(C(=O)O)N2CCCN(C3CCCCC3)CC2)cn1 (stereo not drawn)
FALSE

From: ChEMBL document CHEMBL3988442
